Data origin: paper PMC8619920

# Experiment: Cytotoxicity, LDH assay, HTB140 cells
# Assay type: cell-based, human
# Condition Info: human, HTB140 melanoma cells, 40 μg/mL, 24 h, mean ± SD of three; read-out: Cell viability HTB140
Measured Metric: viability at 24 h, 40 μg/mL (%)
Answer format: numeric, % implied, no suffix.

Supply measured viability at 24 h, 40 μg/mL of CCC(C)C(=O)OC1C=C2C3C(C)C(C)(O)CC(OC(C)=O)C3(C)CCC2(C)C2(C)CC(OC(C)=O)C3C(C)(C)C(O)C(OC(C)=O)CC3(C)C12 (centres unmarked) [Compound 1] in your reply. 68.4

Input CC(=O)OC1CC2(C)C(C(OC(C)=O)CC3(C)C2C(O)C=C2C4C(C)C(C)(O)CC(OC(C)=O)C4(C)CCC23C)C(C)(C)C1O (centres unmarked) [Compound 2] , output reported viability at 24 h, 40 μg/mL. 93.7

* * *

# Experiment: Cytotoxicity, LDH assay, PNT-2 cells
# Assay type: cell-based, human
# Condition Info: human, PNT-2 prostate epithelial cells, 50 μg/mL, 24 h, mean ± SD of three; read-out: Cell viability PNT-2
Measured Metric: viability at 24 h, 50 μg/mL (%)
API: value field is a number in %; no unit string.

Indicate its recorded viability at 24 h, 50 μg/mL; the molecule in question is CC(=O)OC1CC2(C)C(C(OC(C)=O)CC3(C)C2C(O)C=C2C4C(C)C(C)(O)CC(OC(C)=O)C4(C)CCC23C)C(C)(C)C1O (centres unmarked) [Compound 2] 94.6

Let me know recorded viability at 24 h, 50 μg/mL for CCC(C)C(=O)OC1C=C2C3C(C)C(C)(O)CC(OC(C)=O)C3(C)CCC2(C)C2(C)CC(OC(C)=O)C3C(C)(C)C(O)C(OC(C)=O)CC3(C)C12 (centres unmarked) [Compound 1] , thanks. 70.7

* * *

# Experiment: Cytotoxicity, LDH assay, HaCaT cells
# Type: cell-based, human
# Condition Info: human, HaCaT immortalized keratinocytes; 100 μg/mL, 24 h, mean ± SD of three; read-out: Cell viability HaCaT
# Procedure: Cytotoxic activity was tested on human cancer and normal cells, grouped in three panels, namely: prostate, skin and gastrointestinal. […] Cell viability was determined as it was described previously. […] After 24 h of incubation, viability of the cells was determined using colorimetric lactate dehydrogenase (LDH) assay, in comparison to the controls to which corresponding aliquots of MeOH diluted with culture media were added. […]
Measured Metric: viability at 24 h, 100 μg/mL (%)
Supply the numeric figure in %, leaving out any unit text.

Report measured viability at 24 h, 100 μg/mL; entry is CCC(C)C(=O)OC1C=C2C3C(C)C(C)(O)CC(OC(C)=O)C3(C)CCC2(C)C2(C)CC(OC(C)=O)C3C(C)(C)C(O)C(OC(C)=O)CC3(C)C12 (centres unmarked) 56.8

Using the record for CC(=O)OC1CC2(C)C(C(OC(C)=O)CC3(C)C2C(O)C=C2C4C(C)C(C)(O)CC(OC(C)=O)C4(C)CCC23C)C(C)(C)C1O (centres unmarked) , state its measured viability at 24 h, 100 μg/mL. 54.3

* * *

# Experiment: Cytotoxicity, LDH assay, PC3 cells
# Assay type: cell-based, human
# Condition Info: human, PC3 prostate adenocarcinoma cells, 50 μg/mL, 24 h, mean ± SD of three; read-out: Cell viability PC3
# Procedure: Cytotoxic activity was tested on human cancer and normal cells, grouped in three panels, namely: prostate, skin and gastrointestinal. […] Cell viability was determined as it was described previously. […] After 24 h of incubation, viability of the cells was determined using colorimetric lactate dehydrogenase (LDH) assay, in comparison to the controls to which corresponding aliquots of MeOH diluted with culture media were added. […]
Exercise: for every item that follows, state its recorded viability at 24 h, 50 μg/mL.
Field: numeric (%). Do not append units.

Given the compound CC(=O)OC1CC2(C)C(C(OC(C)=O)CC3(C)C2C(O)C=C2C4C(C)C(C)(O)CC(OC(C)=O)C4(C)CCC23C)C(C)(C)C1O (centres unmarked) , write its reported viability at 24 h, 50 μg/mL. 59

Please report the measured viability at 24 h, 50 μg/mL for CCC(C)C(=O)OC1C=C2C3C(C)C(C)(O)CC(OC(C)=O)C3(C)CCC2(C)C2(C)CC(OC(C)=O)C3C(C)(C)C(O)C(OC(C)=O)CC3(C)C12 (centres unmarked) 45.7

* * *

Could you please report measured viability at 24 h, 30 μg/mL for the items listed next?
# Experiment: Cytotoxicity, LDH assay, PNT-2 cells
# Type: cell-based, human
# Condition Info: human, PNT-2 prostate epithelial cells, 30 μg/mL, 24 h, mean ± SD of three; read-out: Cell viability PNT-2
# number only, unit % dropped from output

Quickly give me recorded viability at 24 h, 30 μg/mL for CCC(C)C(=O)OC1C=C2C3C(C)C(C)(O)CC(OC(C)=O)C3(C)CCC2(C)C2(C)CC(OC(C)=O)C3C(C)(C)C(O)C(OC(C)=O)CC3(C)C12 (centres unmarked) 91

Please give measured viability at 24 h, 30 μg/mL of the following entry: CC(=O)OC1CC2(C)C(C(OC(C)=O)CC3(C)C2C(O)C=C2C4C(C)C(C)(O)CC(OC(C)=O)C4(C)CCC23C)C(C)(C)C1O (centres unmarked) 95.6

* * *

# System: Caco-2 human colon adenocarcinoma cells
# Experiment: Cytotoxicity, LDH assay, Caco-2 cells
# Type: cell-based
# Condition Info: Homo sapiens, Caco-2, 24 h, 24 h treatment; value in brackets, footnote d
Measured Metric: pIC50
Field pIC50 (float): negative decimal logarithm of the concentration in molar.

Answer with reported pIC50 of CCC(C)C(=O)OC1C=C2C3C(C)C(C)(O)CC(OC(C)=O)C3(C)CCC2(C)C2(C)CC(OC(C)=O)C3C(C)(C)C(O)C(OC(C)=O)CC3(C)C12 (stereo not shown) 4.30

* * *

# Experiment: Cytotoxicity, LDH assay, DU145 cells
# Format: cell-based, human
# Condition Info: human, DU145 prostate carcinoma cells, 40 μg/mL, 24 h, mean ± SD of three; read-out: Cell viability DU145
Assignment: determine reported viability at 24 h, 40 μg/mL for the given compounds.
Express the result in % but write the number alone.

Report measured viability at 24 h, 40 μg/mL; entry is CCC(C)C(=O)OC1C=C2C3C(C)C(C)(O)CC(OC(C)=O)C3(C)CCC2(C)C2(C)CC(OC(C)=O)C3C(C)(C)C(O)C(OC(C)=O)CC3(C)C12 (centres unmarked) 41.3

Name the recorded viability at 24 h, 40 μg/mL of the item CC(=O)OC1CC2(C)C(C(OC(C)=O)CC3(C)C2C(O)C=C2C4C(C)C(C)(O)CC(OC(C)=O)C4(C)CCC23C)C(C)(C)C1O (centres unmarked) in your answer. 77.1

* * *

# Experiment: Cytotoxicity, LDH assay, HT29 cells
# Format: cell-based, human
# Condition Info: human, HT29 colon adenocarcinoma cells, 100 μg/mL, 24 h, mean ± SD of three; read-out: Cell viability HT29
Consider the following compounds; for each one, report its viability at 24 h, 100 μg/mL.
Provide the reading as a plain figure in %.

Retrieve viability at 24 h, 100 μg/mL measured for CCC(C)C(=O)OC1C=C2C3C(C)C(C)(O)CC(OC(C)=O)C3(C)CCC2(C)C2(C)CC(OC(C)=O)C3C(C)(C)C(O)C(OC(C)=O)CC3(C)C12 (centres unmarked) and print it. 55.2

Supply viability at 24 h, 100 μg/mL value. Item: CC(=O)OC1CC2(C)C(C(OC(C)=O)CC3(C)C2C(O)C=C2C4C(C)C(C)(O)CC(OC(C)=O)C4(C)CCC23C)C(C)(C)C1O (centres unmarked) 56.9

* * *

# Experiment: Cytotoxicity, LDH assay, PC3 cells
# Format: cell-based, human
# Condition Info: human, PC3 prostate adenocarcinoma cells, 20 μg/mL, 24 h, mean ± SD of three; read-out: Cell viability PC3
Measured Metric: viability at 24 h, 20 μg/mL (%)
Your answer should be a plain number; it is taken to be in %.

Report viability at 24 h, 20 μg/mL for CCC(C)C(=O)OC1C=C2C3C(C)C(C)(O)CC(OC(C)=O)C3(C)CCC2(C)C2(C)CC(OC(C)=O)C3C(C)(C)C(O)C(OC(C)=O)CC3(C)C12 (centres unmarked) [Compound 1] 83.9

Could you please provide reported viability at 24 h, 20 μg/mL for CC(=O)OC1CC2(C)C(C(OC(C)=O)CC3(C)C2C(O)C=C2C4C(C)C(C)(O)CC(OC(C)=O)C4(C)CCC23C)C(C)(C)C1O (centres unmarked) [Compound 2] ? Thanks! 87.9

* * *

Can you tell me viability at 24 h, 10 μg/mL for the items I'm about to list?
# Experiment: Cytotoxicity, LDH assay, Caco-2 cells
# Type: cell-based, human
# Condition Info: human, Caco-2; 10 μg/mL, 24 h, mean ± SD of three; read-out: Cell viability Caco-2
Answer in %, number only, no unit symbol.

Identify the reported viability at 24 h, 10 μg/mL for the following entry. CC(=O)OC1CC2(C)C(C(OC(C)=O)CC3(C)C2C(O)C=C2C4C(C)C(C)(O)CC(OC(C)=O)C4(C)CCC23C)C(C)(C)C1O (centres unmarked) [Compound 2] 88.4

Supply reported viability at 24 h, 10 μg/mL belonging to this compound: CCC(C)C(=O)OC1C=C2C3C(C)C(C)(O)CC(OC(C)=O)C3(C)CCC2(C)C2(C)CC(OC(C)=O)C3C(C)(C)C(O)C(OC(C)=O)CC3(C)C12 (centres unmarked) [Compound 1] 88.7
